Source of measurements: patent US20150018311A1

System: Mycobacterium tuberculosis (H37Rv)
Experiment: Growth in liquid media in presence of test compound
Assay type: cell-based
Settings: 5 mg/L
attributeMeasured: Growth in the presence of test compound, M. tuberculosis

Solved entries (count: 4):
CC1(C)C2CC3OB([C@@H](CNC(=O)[C@H](N)Cc4ccccc4)Cc4ccccc4)O[C@]3(C)C1C2 (some centres unmarked); +
C[C@@H](B1OC2CC3CC(C3(C)C)[C@@]2(C)O1)[C@@H](Cc1ccccc1)NC(=O)[C@@H]1CCCN1 (some centres unmarked); +
CC1(C)C2CC3OB([C@@H](CNC(=O)[C@@H](N)Cc4ccccc4)Cc4ccc(OC(F)(F)F)cc4)O[C@]3(C)C1C2.Cl (some centres unmarked); −
CC1(C)C2CC3OB(C[C@@H](Cc4ccccc4)NC(=O)[C@H](Cc4ccccc4)NC(=O)[C@@H](N)Cc4ccccc4)O[C@]3(C)C1C2.Cl (some centres unmarked); +

Proceed to the following item.
Growth in the presence of test compound, M. tuberculosis for CC1(C)C2CC3OB(CC(Cc4ccccc4)NC(=O)C(N)CCCCN)OC3(C)C1C2 (centres unmarked) [Compound 1] is −
